All values here come from paper PMC4864350.

Target: caspase-3 (Homo sapiens, UniProt P42574)
Construct: purchased R&D systems, USA
Sequence (P42574 29-175 limits assumed): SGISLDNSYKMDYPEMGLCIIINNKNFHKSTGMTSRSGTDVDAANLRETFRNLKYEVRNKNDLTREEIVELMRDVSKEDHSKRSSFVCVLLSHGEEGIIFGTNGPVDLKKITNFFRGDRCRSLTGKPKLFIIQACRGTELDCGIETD
Sequence (P42574 176-277 limits assumed): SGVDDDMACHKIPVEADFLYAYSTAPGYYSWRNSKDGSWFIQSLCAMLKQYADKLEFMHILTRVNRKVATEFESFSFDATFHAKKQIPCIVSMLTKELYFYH
Assay: Kinetic assay of fluorogenic substrates with caspase-3
Format: biochemical
Settings: substrate range 0.1–8 μM; enzyme 20 nM (1–9) or 15 nM (10–14); n = 3
Non-standard residues stand in square brackets, D forms with d. *: point of attachment. MethylRed = CN(C)c1ccc(/N=N/c2ccccc2C(=O)*)cc1; FAM = 5(6)-carboxyfluorescein; peptoid = not defined here; Ahx = NCCCCCC(=O)O
// reported Kcat, Caspase-3 for each item listed
QUANTITY_MEASURED: Kcat, Caspase-3 (s⁻¹)

INSERT INTO assay_data (substance, number) VALUES
  ('substrate 11: FRET fluorogenic substrate, recognition Asp-Ala-Pro-Asp, quencher MR, C-terminal peptoid ({FAM-Ahx}-DAPD[Ahx]K(MethylRed)-{peptoid-NH2}; reading uncertain; also: printed as Asp-Ala-Pro-Asp)', 0.0217),
  ('substrate 14: FRET fluorogenic substrate, recognition Asp-Val-Pro-Asp, quencher MR, C-terminal peptoid ({FAM-Ahx}-DVPD[Ahx]K(MethylRed)-{peptoid-NH2}; reading uncertain; also: printed as Asp-Val-Pro-Asp)', 0.0283),
  ('substrate 12: FRET fluorogenic substrate, recognition Asp-Leu-Pro-Asp, quencher MR, C-terminal peptoid ({FAM-Ahx}-DLPD[Ahx]K(MethylRed)-{peptoid-NH2}; reading uncertain; also: printed as Asp-Leu-Pro-Asp)', 0.0233),
  ('substrate 27: FAM-Ahx-Asp-Leu-Pro-Asp-Lys(MR)-Ahx, conjugated to the cell penetrating peptoid at the C-terminus ({FAM-Ahx}-DLPDK(MethylRed)-{Ahx-peptoid}; reading uncertain; also: printed as FAM-Ahx-Asp-Leu-Pro-Asp-Lys(MR)-Ahx)', 0.035);
